Each item that follows carries a reported inhibition at 10 µM.
# Tested on: HepG2
# test.description: Hepatoprotective activity in human HepG2 cells assessed as inhibition of paracetamol-induced reduction in cell viability at 10 uM pretreated for 1 hr followed by paracetamol addition after 24 hrs by MTT assay relative to control
# Format: functional
readout.label: inhibition at 10 µM (%)

chemical_string=CC(C)=CCC[C@]1(C)[C@@H](CC=C(C)C)C[C@]2(C)C(=O)C3=C(O[C@@H](C(C)(C)O)[C@H]3O)[C@@]1(C(=O)c1ccccc1)C2=O assay_result=71.4
chemical_string=CC(C)=CCC[C@]1(C)[C@@H](CC=C(C)C)C[C@]2(C)C(=O)C3=C(O[C@H](C(C)(C)O)[C@H]3O)[C@@]1(C(=O)c1ccccc1)C2=O assay_result=68.1
chemical_string=CC(C)=CCC[C@]1(C)[C@@H](CC=C(C)C)C[C@@]2(C)C(=O)[C@]1(C(=O)c1ccccc1)C(=O)C1=C2O[C@H](C(C)(C)O)[C@@H]1O assay_result=30.8
chemical_string=COC(=O)c1cc(OC)c2c(c1-c1c(CO)cc(OC)c3c1OCO3)OCO2 assay_result=52.6
chemical_string=CC(C)=CCC1=C2O[C@H](C(C)(C)O)CC[C@]3(C)[C@@H](CC=C(C)C)C[C@](C)(C1=O)C(=O)[C@]23C(=O)c1ccccc1 assay_result=37.2
chemical_string=CC(C)=CC[C@H]1C[C@]2(C)C(=O)C(C(=O)c3ccccc3)=C3O[C@H](C(C)(C)O)CC[C@@]1(C)[C@]3(CC=C(C)C)C2=O assay_result=42.9
